The measurements presented in this section are drawn from the supplement of paper PMC5579334.

- System: ST8814
- Method Description: % inhibition of CellTiter-Glo viability at highest tested concentration (72 h), relative to DMSO and benzethonium chloride controls; higher = more inhibition
Measurement Kind: % inhibition (%)
Answers are plain numbers, in %.

Observe how each entry below is paired with its result.
% inhibition for CC1(C)CCC(CN2CCN(c3ccc(C(=O)NS(=O)(=O)c4ccc(NCC5CCOCC5)c([N+](=O)[O-])c4)c(Oc4cnc5[nH]ccc5c4)c3)CC2)=C(c2ccc(Cl)cc2)C1 [ABT-199] (max concentration tested 10000 nM) ? 15.5

% inhibition for Cc1cc2c(F)c(Oc3ncnn4cc(OC[C@@H](C)O)c(C)c34)ccc2[nH]1 [Brivanib] (max concentration tested 1000 nM) ? -1.65

Report % inhibition for each item below.
1. CNC(=O)c1ccccc1Sc1ccc2c(/C=C/c3ccccn3)n[nH]c2c1 [Axitinib] (max concentration tested 10000 nM)
2. CC[C@H](Nc1ncnc2[nH]cnc12)c1nc2cccc(F)c2c(=O)n1-c1ccccc1 [Idelalisib] (max concentration tested 10000 nM)
3. O=C(Nc1ccc2[nH]nc(-c3ccncc3)c2c1)[C@@H]1CCN(CC(=O)N2CCN(c3ccc(-c4ncccn4)cc3)CC2)C1 (max concentration tested 10000 nM)
4. O=C(c1ccc(C(=O)N2CCC(N3CCCC3)CC2)c(Nc2ccccc2)c1)N1CCC(N2CCCC2)CC1 [UNC1215] (max concentration tested 30000 nM)

1: 52.7; 2: 21.2; 3: 91.2; 4: 13.9
